The origin of these recorded values is patent US20080318961A1.

- ASSAYED_TARGET: Chymotrypsin (Bos taurus)
ENDPOINT_LABEL: Ki

Entry O=C(O)CCCSc1nc2ccccc2n1Cc1cccc2ccccc12 [Compound No. 33] under Chymotrypsin (Bos taurus) had Ki of > 10 µM

* * *

- ASSAYED_TARGET: human mast cell chymase (Homo sapiens, UniProt P23946)
- Sequence (P23946 22-247): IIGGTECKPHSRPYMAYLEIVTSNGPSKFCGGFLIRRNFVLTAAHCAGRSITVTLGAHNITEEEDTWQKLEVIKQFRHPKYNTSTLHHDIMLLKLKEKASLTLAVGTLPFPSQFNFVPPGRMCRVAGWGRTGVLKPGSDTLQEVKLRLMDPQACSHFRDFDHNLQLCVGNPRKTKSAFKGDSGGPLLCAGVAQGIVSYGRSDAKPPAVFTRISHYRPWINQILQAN
- METHOD: Recombinant human mast cell chymase enzymatic activity inhibition
- STATED_CONDITIONS: Compound No. 33; read-out: Inhibition constant, Human chymase
ENDPOINT_LABEL: Ki
Could you write the number and then its unit?

Sure, the documented Ki for O=C(O)CCCSc1nc2ccccc2n1Cc1cccc2ccccc12 [Compound No. 33] is 6.2 nM
